Origin of the recorded values: patent US8183287B2

experiment description: clinical study (i): single-dose oral pharmacokinetics, Formulation 1 capsules
Type: in vivo, human
condition: both sexes, human, plasma; single oral dose 50 mg, healthy subjects; read-out: Tmax Median
measurement label: Tmax (min)
Report the figure in min without appending any unit label.

Record request: Tmax value, item CC[C@@H](Nc1c(Nc2cccc(C(=O)N(C)C)c2O)c(=O)c1=O)c1ccc(C)o1 45

* * *

experiment description: clinical study (ii): single-dose 30 mg, fasted or fed subjects, Formulation 1 capsules
Format: in vivo, human
condition: both sexes, human, plasma, po, 30 mg, single oral dose 30 mg, fed, healthy subjects; read-out: Tmax Median
measurement label: Tmax (h)
The response must be a number in h with no trailing unit.

Find the recorded Tmax belonging to CC[C@@H](Nc1c(Nc2cccc(C(=O)N(C)C)c2O)c(=O)c1=O)c1ccc(C)o1 [Compound I] and report it. 2

* * *

experiment description: clinical study (iii): multiple-dose oral pharmacokinetics, Formulation 1 capsules
Format: in vivo, human
condition: both sexes, human, plasma, oral; multiple-dose 50 mg, Day 14, n = 7; read-out: t1/2 Mean (converted)
measurement label: half-life (h)
Please respond with the number in h and leave the unit unwritten.

So what's the measured half-life for this one? CC[C@@H](Nc1c(Nc2cccc(C(=O)N(C)C)c2O)c(=O)c1=O)c1ccc(C)o1 13.8

* * *

experiment description: clinical
condition: both, human, in vivo
measurement label: Vd/F

Please report the recorded Vd/F for CC[C@@H](Nc1c(Nc2cccc(C(=O)N(C)C)c2O)c(=O)c1=O)c1ccc(C)o1 . 1470 to 2200 L

* * *

experiment description: clinical study (iii): multiple-dose oral pharmacokinetics, Formulation 1 capsules
Type: in vivo, human
condition: both sexes, human, plasma, oral, 30 mg, multiple-dose 30 mg, Day 14; read-out: AUC (0-24 hr) Mean
measurement label: AUC(0-t) (ng·h/mL)
# number only, unit ng·h/mL dropped from output

Item CC[C@@H](Nc1c(Nc2cccc(C(=O)N(C)C)c2O)c(=O)c1=O)c1ccc(C)o1 has what recorded AUC(0-t)? 414

* * *

experiment description: clinical study (i): single-dose oral pharmacokinetics, Formulation 1 capsules
Format: in vivo, human
condition: both sexes, human, plasma, po, 50 mg, single oral dose 50 mg, healthy subjects, n = 4; read-out: AUC(I) Mean
measurement label: AUC
Write the quantity with the unit trailing the number.

Sample CC[C@@H](Nc1c(Nc2cccc(C(=O)N(C)C)c2O)c(=O)c1=O)c1ccc(C)o1 — what was its AUC? 768 ng·h/mL

* * *

experiment description: clinical study (i): single-dose oral pharmacokinetics, Formulation 1 capsules
Type: in vivo, human
condition: both sexes, human, plasma, po, 150 mg, single oral dose 150 mg, healthy subjects; read-out: AUC (tf) Mean
measurement label: AUC (ng·h/mL)
Reply numerically in ng·h/mL, unit not repeated.

# AUC lookup, item CC[C@@H](Nc1c(Nc2cccc(C(=O)N(C)C)c2O)c(=O)c1=O)c1ccc(C)o1 1530

* * *

experiment description: clinical study (i): single-dose oral pharmacokinetics, Formulation 1 capsules
Assay type: in vivo, human
condition: both sexes, human, plasma; single oral dose 50 mg, healthy subjects
measurement label: Cmax (ng/mL)
Note: unit ng/mL is implicit; provide only the numeric part.

Item under review: CC[C@@H](Nc1c(Nc2cccc(C(=O)N(C)C)c2O)c(=O)c1=O)c1ccc(C)o1 [Compound I] . Reported Cmax? 153

* * *

experiment description: clinical study (ii): single-dose 30 mg, fasted or fed subjects, Formulation 1 capsules
Assay type: in vivo, human
condition: both sexes, human, plasma, po, 30 mg, single oral dose 30 mg, fed, healthy subjects; read-out: AUC (tf) Mean
measurement label: AUC (µg·h/mL)
Please give a number only; it is taken to be in µg·h/mL.

Looking for the measured AUC of CC[C@@H](Nc1c(Nc2cccc(C(=O)N(C)C)c2O)c(=O)c1=O)c1ccc(C)o1 , can you help? 0.489

* * *

experiment description: clinical study (i): single-dose oral pharmacokinetics, Formulation 1 capsules
Type: in vivo, human
condition: both sexes, human, plasma, po, 50 mg, single oral dose 50 mg, healthy subjects; read-out: AUC (tf) Mean
measurement label: AUC (ng·h/mL)
The answer is to be given in ng·h/mL; state only the numeric part.

Could you share which AUC value was measured for CC[C@@H](Nc1c(Nc2cccc(C(=O)N(C)C)c2O)c(=O)c1=O)c1ccc(C)o1 [Compound I] ? 665

* * *

experiment description: clinical study (i): single-dose oral pharmacokinetics, Formulation 1 capsules
Assay type: in vivo, human
condition: both sexes, human, plasma; single oral dose 100 mg, healthy subjects
measurement label: Cmax (ng/mL)
Your answer is read as ng/mL, so omit the unit and give the number.

Entry under review: CC[C@@H](Nc1c(Nc2cccc(C(=O)N(C)C)c2O)c(=O)c1=O)c1ccc(C)o1 . Reported Cmax? 261

* * *

experiment description: clinical study (i): single-dose oral pharmacokinetics, Formulation 1 capsules
Format: in vivo, human
condition: both sexes, human, plasma, po, 200 mg, single oral dose 200 mg, healthy subjects; read-out: AUC(I) Mean
measurement label: AUC

May I ask what AUC has been recorded for CC[C@@H](Nc1c(Nc2cccc(C(=O)N(C)C)c2O)c(=O)c1=O)c1ccc(C)o1 ? 1810 ng·h/mL

* * *

experiment description: clinical study (i): single-dose oral pharmacokinetics, Formulation 1 capsules
Type: in vivo, human
condition: both sexes, human, plasma; single oral dose 150 mg (+Filgrastim 300 μg), healthy subjects; read-out: t1/2 Mean (converted)
measurement label: half-life
The reply should consist of the numeric value with the unit placed after it.

Query (molecule): CC[C@@H](Nc1c(Nc2cccc(C(=O)N(C)C)c2O)c(=O)c1=O)c1ccc(C)o1 [Compound I] ; field requested: half-life 13 h

* * *

experiment description: clinical study (i): single-dose oral pharmacokinetics, Formulation 1 capsules
Type: in vivo, human
condition: both sexes, human, plasma; single oral dose 150 mg (+Filgrastim 300 μg), healthy subjects
measurement label: Cmax (ng/mL)
Write the value in ng/mL as a bare number.

Would you kindly share the measured Cmax for CC[C@@H](Nc1c(Nc2cccc(C(=O)N(C)C)c2O)c(=O)c1=O)c1ccc(C)o1 ? 292

* * *

experiment description: clinical study (iii): multiple-dose oral pharmacokinetics, Formulation 1 capsules
Type: in vivo, human
condition: both sexes, human, plasma, oral, 50 mg, multiple-dose 50 mg, Day 14; read-out: AUC (0-24 hr) Mean
measurement label: AUC(0-t)

Entry under review: CC[C@@H](Nc1c(Nc2cccc(C(=O)N(C)C)c2O)c(=O)c1=O)c1ccc(C)o1 . Reported AUC(0-t)? 825 ng·h/mL

* * *

experiment description: clinical study (iii): multiple-dose oral pharmacokinetics, Formulation 1 capsules
Assay type: in vivo, human
condition: both sexes, human, plasma, oral, 10 mg, multiple-dose 10 mg, Day 14; read-out: AUC (0-24 hr) Mean
measurement label: AUC(0-t) (ng·h/mL)
Output spec: scalar in ng·h/mL, unitless text.

Need AUC(0-t), item CC[C@@H](Nc1c(Nc2cccc(C(=O)N(C)C)c2O)c(=O)c1=O)c1ccc(C)o1 156

* * *

experiment description: clinical study (i): single-dose oral pharmacokinetics, Formulation 1 capsules
Assay type: in vivo, human
condition: both sexes, human, plasma; single oral dose 100 mg, healthy subjects; read-out: t1/2 Mean (converted)
measurement label: half-life (h)
Answer with a number only, understood to be in h.

What does the record list as half-life for CC[C@@H](Nc1c(Nc2cccc(C(=O)N(C)C)c2O)c(=O)c1=O)c1ccc(C)o1 ? 11.8

* * *

experiment description: clinical study (i): single-dose oral pharmacokinetics, Formulation 1 capsules
Assay type: in vivo, human
condition: both sexes, human, plasma; single oral dose 150 mg, healthy subjects; read-out: t1/2 Mean (converted)
measurement label: half-life (h)
Give just the number in h; leave the unit off.

# get_value(readout='half-life', item= CC[C@@H](Nc1c(Nc2cccc(C(=O)N(C)C)c2O)c(=O)c1=O)c1ccc(C)o1 ) 16.7

* * *

experiment description: clinical study (i): single-dose oral pharmacokinetics, Formulation 1 capsules
Format: in vivo, human
condition: both sexes, human, plasma, po, 150 mg, single oral dose 150 mg, healthy subjects; read-out: AUC(I) Mean
measurement label: AUC (ng·h/mL)
Only the number, expressed in ng·h/mL, is required.

May I ask what AUC has been recorded for CC[C@@H](Nc1c(Nc2cccc(C(=O)N(C)C)c2O)c(=O)c1=O)c1ccc(C)o1 ? 1640

* * *

experiment description: clinical study (i): single-dose oral pharmacokinetics, Formulation 1 capsules
Format: in vivo, human
condition: both sexes, human, plasma; single oral dose 50 mg, healthy subjects, n = 4; read-out: t1/2 Mean (converted)
measurement label: half-life (h)
// return numeric value only (unit: h, not printed)

Which half-life value belongs to CC[C@@H](Nc1c(Nc2cccc(C(=O)N(C)C)c2O)c(=O)c1=O)c1ccc(C)o1 ? 15.8

* * *

experiment description: clinical study (iii): multiple-dose oral pharmacokinetics, Formulation 1 capsules
Assay type: in vivo, human
condition: both sexes, human, plasma, oral, 50 mg, multiple-dose 50 mg, Day 14; read-out: Tmax Median
measurement label: Tmax (min)
Only the number, expressed in min, is required.

Requested field: Tmax. Item: CC[C@@H](Nc1c(Nc2cccc(C(=O)N(C)C)c2O)c(=O)c1=O)c1ccc(C)o1 [Compound I] 30
